test-description: in vivo
stated-conditions: male, rabbit, vitreous humor, topical, 1 drop of Formulation 1 per eye, Concentration of EDTA, vitreous humor, 5 days after one drop of Formulation 1; per rabbit eye
measured-quantity: concentration at 5 days (ng/mL)
Unit ng/mL implied. Number only.

Ask: Form field: reported concentration at 5 days of `O=C(O)CN(CCN(CC(=O)O)CC(=O)O)CC(=O)O`
Reply: 600

====

test-description: in vivo
stated-conditions: male, rabbit, aqueous humor, topical, 1 drop of Formulation 1 per eye, Concentration of EDTA, aqueous humor, 3 days after one drop of Formulation 1; per rabbit eye
measured-quantity: concentration at 3 days

Ask: Form field: reported concentration at 3 days of `O=C(O)CN(CCN(CC(=O)O)CC(=O)O)CC(=O)O`
Reply: 500 ng/mL

====

test-description: in vivo
stated-conditions: male, rabbit, aqueous humor, topical, 1 drop of Formulation 1 per eye, concentration of EDTA in aqueous humor, 30 minutes following administration of Formulation 1
measured-quantity: concentration at 30 min (µg/mL)
Unit µg/mL implied. Number only.

Ask: Form field: reported concentration at 30 min of `O=C(O)CN(CCN(CC(=O)O)CC(=O)O)CC(=O)O`
Reply: 10.7

====

test-description: Dexamethasone solubility experiment with increasing MSM concentration (Example 16)
Type: physicochemical
stated-conditions: MSM solution, aqueous with cosolvent or surfactant or cyclodextrin, MSM 100 mg/ml; read-out: Solubility of Dexamethasone
measured-quantity: solubility (µg/mL)
Unit µg/mL implied. Number only.

Ask: Form field: reported solubility of C[C@@H]1C[C@H]2[C@@H]3CCC4=CC(=O)C=C[C@]4(C)[C@@]3(F)[C@@H](O)C[C@]2(C)[C@@]1(O)C(=O)CO [dexamethasone]
Reply: 190

====

test-description: in vivo
stated-conditions: male, rabbit, aqueous humor, topical, 1 drop of Formulation 1 per eye, Concentration of EDTA, aqueous humor, 1 hr after one drop of Formulation 1; per rabbit eye
measured-quantity: concentration at 1 hr (ng/mL)
Unit ng/mL implied. Number only.

Ask: Form field: reported concentration at 1 hr of O=C(O)CN(CCN(CC(=O)O)CC(=O)O)CC(=O)O [EDTA, ethylenediamine tetraacetic acid]
Reply: 5300

====

test-description: Dexamethasone solubility experiment with increasing MSM concentration (Example 16)
Type: physicochemical
stated-conditions: MSM solution, aqueous with cosolvent or surfactant or cyclodextrin, MSM 200 mg/ml; read-out: Solubility of Dexamethasone
measured-quantity: solubility (µg/mL)
Unit µg/mL implied. Number only.

Ask: Form field: reported solubility of C[C@@H]1C[C@H]2[C@@H]3CCC4=CC(=O)C=C[C@]4(C)[C@@]3(F)[C@@H](O)C[C@]2(C)[C@@]1(O)C(=O)CO [dexamethasone]
Reply: 340

====

test-description: in vivo
stated-conditions: male, rabbit, aqueous humor, topical, 1 drop of Formulation 1 per eye, Concentration of EDTA, aqueous humor, 30 min after one drop of Formulation 1; per rabbit eye
measured-quantity: concentration at 30 min (ng/mL)
Unit ng/mL implied. Number only.

Ask: Form field: reported concentration at 30 min of `O=C(O)CN(CCN(CC(=O)O)CC(=O)O)CC(=O)O`
Reply: 10700

====

test-description: in vivo
stated-conditions: male, rabbit, aqueous humor, topical, 1 drop of Formulation 1 per eye, Concentration of EDTA, aqueous humor, 4 hrs after one drop of Formulation 1; per rabbit eye
measured-quantity: concentration at 4 hrs (ng/mL)
Unit ng/mL implied. Number only.

Ask: Form field: reported concentration at 4 hrs of `O=C(O)CN(CCN(CC(=O)O)CC(=O)O)CC(=O)O`
Reply: 900

====

test-description: Dexamethasone solubility experiment with increasing MSM concentration (Example 16)
Format: physicochemical
stated-conditions: MSM solution, aqueous with cosolvent or surfactant or cyclodextrin, MSM 250 mg/ml; read-out: Solubility of Dexamethasone
measured-quantity: solubility (µg/mL)
Unit µg/mL implied. Number only.

Ask: Form field: reported solubility of `C[C@@H]1C[C@H]2[C@@H]3CCC4=CC(=O)C=C[C@]4(C)[C@@]3(F)[C@@H](O)C[C@]2(C)[C@@]1(O)C(=O)CO`
Reply: 450
